// values below are reported IFNg Secretion (Fold over CD3)
Biological target: T1, human GITR (Glucocorticoid-induced TNFR-related gene, TNFRSF18) (human, UniProt Q9Y5U5 26-241)
T1 sequence: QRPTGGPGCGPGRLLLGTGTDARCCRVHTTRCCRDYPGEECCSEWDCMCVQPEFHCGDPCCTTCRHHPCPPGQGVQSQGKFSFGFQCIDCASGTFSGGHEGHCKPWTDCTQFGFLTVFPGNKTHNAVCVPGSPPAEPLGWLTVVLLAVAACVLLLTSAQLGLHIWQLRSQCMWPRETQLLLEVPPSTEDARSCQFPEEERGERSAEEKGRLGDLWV
Test: cell-based or functional assay
measurement-type: IFNg Secretion (Fold over CD3) (fold over CD3)

* 7A10 (antibody, human IgG1, kappa, V domains shown, Fully human parental antibody; also called Ab18; SS-10944) VH: QVQLVESGGGVVQPGRSLRLSCAASGFTFSSYGMHWVRQAPGKGLEWMAVIWYVGSNKYYADSVKGRFTISRDNSKNTLYLQMNSLSAEDTAVYYCARGGELGRDYYSGMDVWGQGTTVTVSS VL: DIQMTQSPSSLSASVGDRVTITCRASQGIRNDLGWYQQKPGKAPKRLIYAASSLQSGVPSRFSGSGSGTEFTLTISSLQPEDFATYYCQQHNSYPWTFGQGTKVEIKR | 2.2
* 45A8v1 (antibody, human IgG1, lambda, V domains shown, tied to 45A8v1 by Ab21 / SS-12515; also called Ab21; SS-12515) VH: QVQLVESGGGVVQPGRSLRLSCAASGFTFSSYGMHWVRQAPGKGLEWVAVIWHDGSNKYYADSVKGRFTISKDNSKNTLYLQMNSLRAEDTAVYYCAREYGGNFDYWGQGTLVTVSS VL: QSALTQPASVSGSPGQSITISCTGTSSDVGTYNLVSWYQQHPGKAPKLMIYEVSKRPSGISNRFSGSKSGNTASLTISGLQAEDEADYYCASYAGYSTWVFGGGTKLTVLR | 1.8
